B1: Azoarcus group I ribozyme (parent)
chain: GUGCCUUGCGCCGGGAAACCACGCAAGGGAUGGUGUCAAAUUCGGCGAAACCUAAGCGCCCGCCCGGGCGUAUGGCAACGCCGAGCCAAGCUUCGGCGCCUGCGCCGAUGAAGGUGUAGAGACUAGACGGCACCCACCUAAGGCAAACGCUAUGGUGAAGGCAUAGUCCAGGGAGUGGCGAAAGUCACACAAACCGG

variants of: B1; assay: reverse-splicing fitness (ratio to wild type); higher = more active; in vitro selection; Mg2+ level not given

# mutation key, reverse-splicing fitness
rows = [
    ("C82U A145G C169G", 0.0106),
    ("C82G A120C C169G U176G", 0.00385),
    ("C82U A120C A145G C169U U176A", 0.0177),
    ("C82G A111C", 0.281),
    ("C82U A111G A120G A145C C150A C169G U176C", 0.015),
    ("C82G A120G C150G C169U", 0.00956),
    ("C82U A111G A120G C150U U176A", 0.00985),
    ("C82G A120U A145U U176A", 0.0782),
    ("C82G A111G A145G C150U", 0.316),
    ("C82U A111G A120G A145C C150U C169A", 0.0078),
    ("C82U A111G A120U A145C C150G U176C", 0.00405),
    ("C82G A111G A120U A145G C150G C169G U176A", 0.00894),
    ("C82G A145G C169A U176A", 0.0187),
    ("C82G A111U A120G C150U U176A", 0.0111),
    ("A111U A145U C150G C169U U176G", 0.00601),
    ("C82U A111G A120U C150U C169A U176C", 0.00318),
    ("C82G A145U C150G C169G U176A", 0.00882),
    ("A111G A120U A145U C150U C169G U176C", 0.009),
    ("C82U A111C A120U A145G C150A C169G U176A", 0.00613),
    ("C82G A111C A120U A145U C150U C169G U176A", 0.00347),
    ("C82A A111C A145U C150A C169U U176C", 0.0167),
    ("C82G A111G A120G A145G C169A U176C", 0.0235),
    ("C82U A111U A120G A145U C169G U176G", 0.00402),
    ("C82G A145G", 0.458),
    ("A111U A145U U176G", 0.364),
    ("C82A A111C A120U A145C C150U C169G U176C", 0.00264),
    ("A111G A120U A145G C150G C169A", 0.00794),
    ("C82A A111U A145U C150U C169G U176C", 0.0156),
    ("C82G A111U A145C C150A C169G U176G", 0.00716),
    ("C82G A111U A120C A145G C150U C169G", 0.00889),
    ("C82G A111U A120G A145U C150U C169G U176A", 0.0145),
    ("C82G A111U A145U C150G C169U", 0.00956),
    ("C82A A120G A145U C150A U176A", 0.0108),
    ("C82G A111U A120C A145G C150G C169A U176C", 0.0149),
    ("C82A A145G C150A C169G U176G", 0.0061),
    ("C82U A111C A145G C150G U176C", 0.0166),
    ("C82U A120U A145C C150A C169G", 0.00203),
    ("A111C A120C C150G C169G U176G", 0.00564),
    ("C82A A111U A120C C150U U176A", 0.0125),
]
